Values from patent US8729081B2

# Target system: PKCtheta (Homo sapiens)
# Sequence (Q04759 whole entry): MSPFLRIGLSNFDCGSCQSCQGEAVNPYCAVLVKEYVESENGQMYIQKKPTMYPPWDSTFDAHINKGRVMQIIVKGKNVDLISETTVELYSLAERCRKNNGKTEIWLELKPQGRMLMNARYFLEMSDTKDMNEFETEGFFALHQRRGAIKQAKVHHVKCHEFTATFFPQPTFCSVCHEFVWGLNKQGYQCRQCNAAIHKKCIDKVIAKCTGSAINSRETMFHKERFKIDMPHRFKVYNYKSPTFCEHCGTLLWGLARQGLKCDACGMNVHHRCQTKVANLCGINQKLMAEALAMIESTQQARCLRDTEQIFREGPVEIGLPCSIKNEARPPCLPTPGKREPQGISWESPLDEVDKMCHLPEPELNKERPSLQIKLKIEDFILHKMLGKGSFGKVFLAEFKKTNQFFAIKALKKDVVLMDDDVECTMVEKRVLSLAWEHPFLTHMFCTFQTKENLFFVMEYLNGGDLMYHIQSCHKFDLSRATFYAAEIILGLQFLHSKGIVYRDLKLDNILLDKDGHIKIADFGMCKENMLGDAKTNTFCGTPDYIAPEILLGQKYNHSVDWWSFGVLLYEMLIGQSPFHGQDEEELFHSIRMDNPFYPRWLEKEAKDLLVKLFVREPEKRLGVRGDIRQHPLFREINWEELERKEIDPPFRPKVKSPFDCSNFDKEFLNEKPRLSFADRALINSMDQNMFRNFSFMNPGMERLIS
Measured metric: IC50

Record O=C(NCCCN1CCCC1)c1ccc(/C=C2\Sc3ccccc3N(Cc3ccccc3F)C2=O)cc1 / PKCtheta (Homo sapiens), IC50 recorded as > 20 µM

====

Target sequence: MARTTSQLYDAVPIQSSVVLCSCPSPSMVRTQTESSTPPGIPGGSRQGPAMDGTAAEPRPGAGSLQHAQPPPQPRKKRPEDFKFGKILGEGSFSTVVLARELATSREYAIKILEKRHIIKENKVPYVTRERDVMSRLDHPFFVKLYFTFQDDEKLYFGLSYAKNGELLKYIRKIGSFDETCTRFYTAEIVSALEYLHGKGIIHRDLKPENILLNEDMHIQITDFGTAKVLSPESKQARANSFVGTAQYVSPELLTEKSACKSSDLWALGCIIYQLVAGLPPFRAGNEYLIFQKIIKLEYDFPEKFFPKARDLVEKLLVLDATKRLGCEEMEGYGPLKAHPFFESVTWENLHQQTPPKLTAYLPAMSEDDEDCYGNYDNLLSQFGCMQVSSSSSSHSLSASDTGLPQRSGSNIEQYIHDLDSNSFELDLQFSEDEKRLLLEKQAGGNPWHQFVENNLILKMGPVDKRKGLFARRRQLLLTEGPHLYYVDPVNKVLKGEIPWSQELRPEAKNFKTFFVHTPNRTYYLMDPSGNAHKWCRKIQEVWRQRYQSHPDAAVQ
Measured metric: IC50

Entry under test: O=C(NCCCN1CCCC1)c1ccc(/C=C2\Sc3ccccc3N(Cc3ccccc3F)C2=O)cc1 . Its IC50 was > 20 µM
